src = BindingDB's records for doi:10.1016/j.ejmech.2019.111919

target-desc: Phosphatidylcholine-specific phospholipase C (Bacillus cereus)
assay-notes: Binding affinity to Bacillus cereus N-terminal His6-tagged full length PC-PLC 3C Protease cleavage site expressed in Escherichia coli BL21(DE3) cells using 3,3-dimethylglutaratic acid as substrate by intrinsic fluorescence assay
value-type: Kd (µM)
Number in µM, nothing else.

(Q) I am curious: what Kd value has been reported for O=C(O)c1cc(NCc2ccccc2Cl)ccc1N1CCOCC1 ?
(A) 325

* * *

assay-notes: Inhibition of Bacillus cereus phospholipase C using L-alpha-phosphatidylcholine as substrate by Lineweaver-Burk plot analysis
value-type: Ki (µM)
Lab book: enter the figure in µM, no units written.

(Q) Any idea what Ki was measured for CCCCCOC(=O)CC(CSP(=O)([O-])OCC[N+](C)(C)C)C(=O)OCCCCC (stereo unspecified) ?
(A) 7

* * *

target-desc: UniProt P09598
Sequence (P09598 whole entry, looked up): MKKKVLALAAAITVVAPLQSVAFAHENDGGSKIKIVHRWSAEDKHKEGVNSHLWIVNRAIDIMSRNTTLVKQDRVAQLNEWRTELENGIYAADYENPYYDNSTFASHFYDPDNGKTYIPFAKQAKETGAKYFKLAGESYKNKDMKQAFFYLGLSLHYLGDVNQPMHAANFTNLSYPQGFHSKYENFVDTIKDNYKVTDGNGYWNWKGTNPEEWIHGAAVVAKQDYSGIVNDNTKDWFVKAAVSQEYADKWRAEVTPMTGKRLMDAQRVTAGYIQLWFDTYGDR
assay-notes: Inhibition of recombinant Bacillus cereus N-terminal His6-tagged full length PC-PLC 3C Protease cleavage site expressed in Escherichia coli BL21(DE3) cells using phosphatidylcholine as substrate by amplex red assay relative to control
value-type: pIC50
Lab note: report pIC50 as minus log10 of the concentration in molar units, number only.

Field: example entries. Status: answers known.
>  <compound>
O=C(O)C1Cc2c([nH]c3ccccc23)C(c2ccc(O)c(O)c2)N1 (stereo not given)

>  <target-desc>
UniProt P09598

>  <pIC50>
5.51

$$$$
>  <compound>
O=C(O)c1cc(NCc2cccc(Br)c2)ccc1N1CCOCC1

>  <target-desc>
UniProt P09598

>  <pIC50>
5.43

$$$$
>  <compound>
CN(C)c1ccc(C2NC(C(=O)O)Cc3c2[nH]c2ccccc32)cc1 (stereo not given)

>  <target-desc>
UniProt P09598

>  <pIC50>
4.96

$$$$
>  <compound>
O=C(O)c1cc(NCc2cccc(Cl)c2)ccc1N1CCOCC1

>  <target-desc>
UniProt P09598

>  <pIC50>
5.31

$$$$

(Q) Recorded pIC50 for O=C(O)c1cc(NCc2ccccc2Cl)ccc1N1CCOCC1 with UniProt P09598, please?
(A) 5.44
